# key: entry, value: Ki
Molecular target: δ-opioid receptor (Homo sapiens, UniProt P41143)
Sequence (P41143 whole entry): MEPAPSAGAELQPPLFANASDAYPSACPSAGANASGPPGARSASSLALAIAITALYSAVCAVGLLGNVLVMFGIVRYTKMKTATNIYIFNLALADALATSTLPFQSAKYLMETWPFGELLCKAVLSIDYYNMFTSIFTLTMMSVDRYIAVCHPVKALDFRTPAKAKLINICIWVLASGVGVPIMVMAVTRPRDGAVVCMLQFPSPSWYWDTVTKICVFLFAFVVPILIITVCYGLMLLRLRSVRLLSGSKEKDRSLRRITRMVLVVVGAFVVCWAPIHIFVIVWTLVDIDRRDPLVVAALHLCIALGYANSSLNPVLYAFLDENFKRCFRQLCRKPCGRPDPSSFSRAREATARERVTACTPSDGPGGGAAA
Test: Opioid receptor binding assay, [3H][Ile5,6]deltorphin-2 competition
Parameters: purchased; host or cells: CHO cells (membranes)
Details: CHO cell membranes, 0.5 nM [3H][Ile5,6]deltorphin-2, 25 °C, 120 min; mean ± SEM of four experiments in duplicate; read-out: Ki DOR
Method: The opioid receptor binding assays were performed using the modified method described elsewhere. Briefly, commercial membranes of Chinese Hamster Ovary (CHO) cells transfected with human opioid receptors were used. The binding affinities for µ-, δ- and κ-opioid receptors were determined by radioligand competition analysis using [^3H]DAMGO, [^3H]deltorphin-2, and [^3H]U-69593, respectively. […] Non-specific binding was determined in the presence of 1 µM naloxone. […]
Ends that are not written are not given here.

SUBSTANCE	TARGET_OR_SYSTEM	QUANTITY_MEASURED	RECORDED_RESULT
YPLDLF [R-6, rubiscolin-6]	δ-opioid receptor (Homo sapiens, UniProt P41143)	Ki	11.5 nM

## Input Return Ki measured with δ-opioid receptor (Homo sapiens, UniProt P41143) given this substance: YPLDLF-NH2 [analog 6, Tyr-Pro-Leu-Asp-Leu-Phe-NH2]
## Output > 1000 nM

###

target: δ-opioid receptor (Homo sapiens); assay: Calcium mobilisation assay, CHO cells with GαqG66Di5; format: cell-based; set-up: expressed in transfected cells; host or cells: CHO cells; gift from Prof; Girolamo Calo, University of Padova; conditions: intrinsic activity, Emax ratio to DPDPE; Inactive = inactive as an agonist up to 1 µM
Square brackets hold non-standard residues; d marks the D form. Peptide text beside a SMILES is read from it. Dmt = Cc1cc(O)cc(C)c1C[C@H](N)C(=O)O; Inp = O=C(O)C1CCNCC1
QUANTITY_MEASURED: δ-opioid receptors α ± SEM

COMPOUND	RECORDED_RESULT
CC(C)C[C@H](NC(=O)C1CCN(C(=O)[C@@H](N)Cc2ccc(O)cc2)CC1)C(=O)N[C@@H](CC(=O)O)C(=O)N[C@@H](CC(C)C)C(=O)N[C@@H](Cc1ccccc1)C(N)=O [analog 7, Tyr-Inp-Leu-Asp-Leu-Phe-NH2] (H-Y[Inp]LDLF-NH2)	Inactive
Cc1cc(O)cc(C)c1C[C@H](N)C(=O)N1CCC[C@H]1C(=O)N[C@@H](CC(C)C)C(=O)N[C@@H](CC(=O)O)C(=O)N[C@@H](CC(C)C)C(=O)N[C@@H](Cc1ccccc1)C(=O)O [analog 1, Dmt-Pro-Leu-Asp-Leu-Phe-OH] (H-[Dmt]PLDLF-OH)	Inactive
CC(C)C[C@H](NC(=O)C1CCN(C(=O)[C@@H](N)Cc2ccc(O)cc2)CC1)C(=O)N[C@@H](CC(=O)O)C(=O)N[C@@H](CC(C)C)C(=O)N[C@@H](Cc1ccccc1)C(=O)O [analog 3, Tyr-Inp-Leu-Asp-Leu-Phe-OH] (H-Y[Inp]LDLF-OH)	Inactive
Cc1cc(O)cc(C)c1C[C@H](N)C(=O)N1CCC(C(=O)N[C@@H](CC(C)C)C(=O)N[C@@H](CC(=O)O)C(=O)N[C@@H](CC(C)C)C(=O)N[C@@H](Cc2ccccc2)C(=O)O)CC1 [analog 5, Dmt-Inp-Leu-Asp-Leu-Phe-OH] (H-[Dmt][Inp]LDLF-OH)	0.39 ± 0.02
